# experimental system: T1, Ep-CAM (UniProt P16422 24-265, limits assumed)
# T1 sequence (looked up): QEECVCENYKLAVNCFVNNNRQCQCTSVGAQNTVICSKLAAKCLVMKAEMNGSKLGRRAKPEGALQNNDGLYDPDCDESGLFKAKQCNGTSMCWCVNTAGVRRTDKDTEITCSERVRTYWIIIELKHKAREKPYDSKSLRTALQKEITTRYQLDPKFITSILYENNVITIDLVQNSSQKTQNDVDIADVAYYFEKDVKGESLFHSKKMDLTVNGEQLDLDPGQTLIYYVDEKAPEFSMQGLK
# assay overview: Biacore, Fab periplasmic extract on immobilised Epcam
metric name: fold difference in affinity vs original
Entry format: amount then unit.

Please give the documented fold difference in affinity vs original of ING-1 Fab, heavy chain Y32L (Fab, V domains shown, Fab in periplasmic extract) VH: QIQLVQSGPELKKPGETVKISCKASGYTFTKLGMNWVKQAPGKGLKWMGWINTYTEEPTYGDDFKGRFAFSLETSASTANLQINNLKSEDTATYFCARFGSAVDYWGQGTSVTVSS VL: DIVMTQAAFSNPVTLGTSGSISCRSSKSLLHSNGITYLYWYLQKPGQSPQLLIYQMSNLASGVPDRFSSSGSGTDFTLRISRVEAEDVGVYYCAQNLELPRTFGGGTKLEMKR
0.05 fold

Please give the documented fold difference in affinity vs original of ING-1 Fab, heavy chain W50G (Fab, V domains shown, Fab in periplasmic extract) VH: QIQLVQSGPELKKPGETVKISCKASGYTFTKYGMNWVKQAPGKGLKWMGGINTYTEEPTYGDDFKGRFAFSLETSASTANLQINNLKSEDTATYFCARFGSAVDYWGQGTSVTVSS VL: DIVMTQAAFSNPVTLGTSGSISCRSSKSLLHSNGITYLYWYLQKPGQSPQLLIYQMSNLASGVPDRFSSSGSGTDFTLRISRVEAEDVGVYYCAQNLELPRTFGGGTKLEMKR
0.03 fold

Please give the documented fold difference in affinity vs original of ING-1 Fab, heavy chain W50V (Fab, V domains shown, Fab in periplasmic extract) VH: QIQLVQSGPELKKPGETVKISCKASGYTFTKYGMNWVKQAPGKGLKWMGVINTYTEEPTYGDDFKGRFAFSLETSASTANLQINNLKSEDTATYFCARFGSAVDYWGQGTSVTVSS VL: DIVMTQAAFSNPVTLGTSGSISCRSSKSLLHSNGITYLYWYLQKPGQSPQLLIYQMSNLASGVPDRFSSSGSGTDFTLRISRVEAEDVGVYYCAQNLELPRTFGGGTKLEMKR
0.02 fold
